Attribute: Ki
Target under test: human FLAP (Homo sapiens (Human), UniProt P20292)
Sequence (P20292 whole entry): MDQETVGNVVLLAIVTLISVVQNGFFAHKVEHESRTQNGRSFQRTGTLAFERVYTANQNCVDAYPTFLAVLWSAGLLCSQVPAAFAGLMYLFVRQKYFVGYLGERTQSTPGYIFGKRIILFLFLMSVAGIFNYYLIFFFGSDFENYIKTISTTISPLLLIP
Method description: FLAP binding assay (HTRF format)
Assay conditions: human FLAP wild type, Table 6 (additional runs)
Endpoint name: Ki (nM)

Nc1cnc(-c2ccc(-c3ccccc3OC3CCS(=O)(=O)CC3)cc2F)cn1 | 40.8
N#Cc1nc(-c2ccc(-c3ccccc3S(=O)(=O)N3CCNC(=O)C3)cc2F)cnc1N | 65.5
NCCn1cc(-c2ccccc2-c2ccc(-c3cnc(N)cn3)c(F)c2)cn1 | 216
C[C@H]1CN(C(=O)c2ccccc2-c2ccc(-c3cnc(N)nc3)c(F)c2)CCO1 | 1620

====

Attribute: Ki
Target under test: human FLAP (Homo sapiens (Human), UniProt P20292)
Method description: FLAP binding assay (HTRF format)
Assay conditions: Table 6 (additional runs), human FLAP wild type
Counter-ions that a name gives are not always drawn.
Endpoint name: Ki (nM)

O=S1(=O)CCN(S(=O)(=O)c2ccccc2-c2ccc(-c3cnc4c(c3)OCCN4)c(F)c2)CC1 | 0.9
CC(C)(C)NS(=O)(=O)c1ccccc1-c1ccc(-c2cnc3[nH]ccc3c2)c(F)c1 | 0.9
CC(CO)(CO)NS(=O)(=O)c1ccccc1-c1ccc(-c2cnc(N)nc2)c(F)c1 | 8.1
Nc1cnc(-c2ccc(-c3ccccc3S(=O)(=O)N[C@H]3c4ccccc4C[C@@H]3O)cc2F)cn1 | 0.6
Nc1cnc(-c2ccc(-c3ccccc3SC(F)(F)F)cc2F)cn1 | 63.2
Nc1cnc(-c2ccc(-c3ccccc3S(=O)(=O)N[C@@H]3c4ccccc4C[C@@H]3O)cc2F)cn1 | 0.4
Nc1ncc(-c2ccc(-c3ccccc3S(=O)(=O)N[C@@H](c3ccccc3)C(F)(F)F)cc2F)cn1 [Example 292, trifluoroacetic acid salt] | 9.9
CC(C)(C)NS(=O)(=O)c1ccccc1-c1ccc(-c2cnc3[nH]ccc3n2)c(F)c1 | 0.7
CC(C)[C@H](CO)NS(=O)(=O)c1ccccc1-c1ccc(-c2cnc(N)cn2)c(F)c1 | 1.5
Cc1cccc(-c2ccc(-c3cnc(N)nc3)c(F)c2)c1S(=O)(=O)NC(C)(C)C [Example 287, trifluoroacetic acid salt] | 8.5
Nc1cnc(-c2ccc(-c3ccccc3S(=O)(=O)N[C@@H](CO)c3ccccc3)cc2F)cn1 | 0.7
CC(NS(=O)(=O)c1ccccc1-c1ccc(-c2cnc(N)cn2)c(F)c1)C(F)(F)F (racemic) | 1.3
Nc1cnc(-c2ccc(-c3ccccc3S(=O)(=O)N3CC(O)C3)cc2F)cn1 | 2.7
Nc1ncc(-c2ccc(-c3ccccc3S(=O)(=O)N[C@H]3CCCC[C@H]3O)cc2F)cn1 (racemic) | 7.8
CC(C)(C)[C@H](CO)NS(=O)(=O)c1ccccc1-c1ccc(-c2cnc(N)cn2)c(F)c1 | 1.5
Nc1cnc(-c2ccc(-c3ccccc3S(=O)(=O)C3CCC3)cc2F)cn1 | 7.8
Nc1cnc(-c2ccc(-c3ccccc3CSc3ccc(N)nn3)cc2F)cn1 [Example 240, hydrochloride] | 2.4
C[C@H](O)CNS(=O)(=O)Cc1ccccc1-c1ccc(-c2cnc(N)cn2)c(F)c1 [Example 227, hydrochloride] | 670
CC(C)(C)NS(=O)(=O)c1ccccc1-c1ccc(-c2cnc(N)nc2)c(F)c1 [Example 305, trifluoroacetic acid salt] | 1.6
CC(C)CNS(=O)(=O)c1ccccc1-c1ccc(-c2cnc(N)nc2)c(F)c1 | 2.4
CCN(CC)S(=O)(=O)c1ccccc1-c1ccc(-c2ccc(N)nc2)c(F)c1 | 4.3
CC(=O)NC1CCN(S(=O)(=O)c2ccccc2-c2ccc(-c3cnc(N)cn3)c(F)c2)CC1 | 10.7
CC(C)N(CCO)S(=O)(=O)c1ccccc1-c1ccc(-c2cnc(N)nc2)c(F)c1 | 5.6
CC[C@@H](CO)NS(=O)(=O)c1ccccc1-c1ccc(-c2cnc(N)nc2)c(F)c1 | 56.8
CCCCCCS(=O)(=O)c1ccccc1-c1ccc(-c2cnc(N)cn2)c(F)c1 | 72.1
Nc1cnc(-c2ccc(-c3ccccc3S(=O)(=O)N[C@@H]3CCCC[C@@H]3O)cc2F)cn1 | 3.2
Nc1cnc(-c2ccc(-c3ccccc3Sc3ccnc(N)n3)cc2F)cn1 [Example 242, hydrochloride] | 0.7
CC(C)(C)Sc1ccccc1-c1ccc(-c2cnc(N)cn2)c(F)c1 | 66.2
Nc1cnc(-c2ccc(-c3ccccc3S(=O)(=O)NCCCCCO)cc2F)cn1 | 2.4
Nc1cnc(-c2ccc(-c3ccccc3S(=O)(=O)N3CCCC(F)(F)C3)cc2F)cn1 | 1.3
Nc1ncc(-c2ccc(-c3ccccc3S(=O)(=O)Nc3ccccc3)cc2F)cn1 [Example 285, trifluoroacetic acid salt] | 3.3

The values you see were collected from patent US9745328B2.
